These measurements were taken from ChEMBL document CHEMBL4339246.

Test system: MCF7
Experiment: Cytotoxicity in human MCF7 cells assessed as reduction in cell viability incubated for 72 hrs by MTT assay
Type: functional, cell-based
Conditions: MCF7, 72 h
# reported IC50; entries follow

Give the measured IC50 of C=C(C)[C@H]1CC[C@@](C)(O)[C@@H]1/C=C/C(C)=C/[C@@H]1C[C@@]23[C@H](OCCC[C@@H]2/C(=C(/C)C=O)CC[C@]3(C)O)O1 . > 10 µM

And for C=C(C)[C@@H]1CC[C@](C)(O)[C@H]1/C=C/C(C)=C/[C@@H]1C[C@@]2([C@H](OC)O1)[C@H](CCCO)/C(=C(\C)C=O)CC[C@]2(C)O ? > 10 µM

And for C=C(C)[C@H]1CC[C@@](C)(O)[C@@H]1/C=C/C(C)=C/[C@@H]1C[C@@]23[C@H](OCCC[C@@H]2/C(=C(\C)C=O)CC[C@]3(C)O)O1 ? > 10 µM
